Exercise: state measured hERG current change (%, negative = inhibition) at 10uM for each of the molecules provided.
target: human ether-à-go-go-related gene (hERG) potassium channel (human, UniProt Q12809); experiment: primary screen, population patch clamp on CHO cells stably expressing hERG; higher = less effect of the substance;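 further: peak tail current of the secondary pulse compared with the same well before compound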
Sequence (Q12809 whole entry, looked up): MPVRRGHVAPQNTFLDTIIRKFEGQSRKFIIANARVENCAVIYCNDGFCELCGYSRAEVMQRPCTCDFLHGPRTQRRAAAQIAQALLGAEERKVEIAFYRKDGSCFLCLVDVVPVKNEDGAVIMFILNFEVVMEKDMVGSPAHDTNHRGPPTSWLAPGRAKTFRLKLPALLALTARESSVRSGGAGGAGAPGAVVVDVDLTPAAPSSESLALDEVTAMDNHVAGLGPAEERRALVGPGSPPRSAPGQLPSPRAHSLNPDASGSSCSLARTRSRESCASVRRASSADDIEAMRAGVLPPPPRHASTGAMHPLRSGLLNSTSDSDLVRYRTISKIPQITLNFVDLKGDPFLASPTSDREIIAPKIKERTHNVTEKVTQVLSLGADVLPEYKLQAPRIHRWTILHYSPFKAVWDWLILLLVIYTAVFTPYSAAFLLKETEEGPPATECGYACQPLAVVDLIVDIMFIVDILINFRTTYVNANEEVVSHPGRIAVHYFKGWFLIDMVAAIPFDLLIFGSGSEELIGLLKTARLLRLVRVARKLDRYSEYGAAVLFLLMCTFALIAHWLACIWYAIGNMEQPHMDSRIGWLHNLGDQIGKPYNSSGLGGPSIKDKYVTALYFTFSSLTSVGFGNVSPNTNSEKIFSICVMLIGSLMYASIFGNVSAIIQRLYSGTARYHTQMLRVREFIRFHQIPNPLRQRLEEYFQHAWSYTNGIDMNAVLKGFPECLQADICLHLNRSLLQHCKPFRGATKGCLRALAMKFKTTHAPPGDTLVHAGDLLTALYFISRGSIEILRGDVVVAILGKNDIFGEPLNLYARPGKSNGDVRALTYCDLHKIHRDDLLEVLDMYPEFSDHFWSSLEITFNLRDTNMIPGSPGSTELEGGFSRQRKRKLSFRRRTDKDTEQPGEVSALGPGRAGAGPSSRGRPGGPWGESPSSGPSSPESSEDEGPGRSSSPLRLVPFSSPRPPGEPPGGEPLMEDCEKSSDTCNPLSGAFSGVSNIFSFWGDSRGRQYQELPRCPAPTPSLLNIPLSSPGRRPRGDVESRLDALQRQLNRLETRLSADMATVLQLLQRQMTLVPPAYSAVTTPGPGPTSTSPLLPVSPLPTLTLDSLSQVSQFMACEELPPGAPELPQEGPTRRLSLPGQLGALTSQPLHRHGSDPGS
About 14,000 (4.5%) of roughly 310,000 compounds showed an effect of 50% or more. Effects have a minus sign here. Shown is part of a subset that was picked to be rich in strong results.
Please give a number only; it is taken to be in %.

What value of hERG current change (%, negative = inhibition) at 10uM has been reported for the following molecule? COc1ccc2cc(C(=O)/C=C/c3cc(OC)c(O)c(OC)c3)ccc2c1
8.79

What value of hERG current change (%, negative = inhibition) at 10uM has been reported for the following molecule? COc1ccc(/C=C/C(=O)c2ccc(Cl)s2)cc1O
1.69

What value of hERG current change (%, negative = inhibition) at 10uM has been reported for the following molecule? COc1ccc(C(=O)Nc2ccccc2N2CCOCC2)cc1S(=O)(=O)N1CCCC1
-24.5

What value of hERG current change (%, negative = inhibition) at 10uM has been reported for the following molecule? O=S(=O)(Nc1nc(-c2ccccc2)cs1)c1cc(Cl)ccc1Cl
18.3

What value of hERG current change (%, negative = inhibition) at 10uM has been reported for the following molecule? N#C/C(Cn1c[n+](NC(=O)Nc2ccccc2)cn1)=N/O.[Cl-]
16.2

What value of hERG current change (%, negative = inhibition) at 10uM has been reported for the following molecule? O=C(NCc1ccccn1)C1CCCN(S(=O)(=O)c2ccccc2)C1 (stereo not shown)
10.9

What value of hERG current change (%, negative = inhibition) at 10uM has been reported for the following molecule? Cc1cc(C)c(NC(=O)CSc2nnc(CN3CCOCC3)n2C)c(C)c1
13.5

What value of hERG current change (%, negative = inhibition) at 10uM has been reported for the following molecule? COc1ccc(C(=O)/C=C/c2cc(OC)c(O)c(OC)c2)c(F)c1
-52.3

What value of hERG current change (%, negative = inhibition) at 10uM has been reported for the following molecule? COc1cc(/C=C/C(=O)O)cc(OC)c1O
2.08

What value of hERG current change (%, negative = inhibition) at 10uM has been reported for the following molecule? Cc1cc(=O)n(CC(=O)Nc2cc(Cl)ccc2C)c(C(C)C)n1
-1.59

* * *

Exercise: state measured hERG current change (%, negative = inhibition) at 10uM for each of the compounds provided.
target: human ether-à-go-go-related gene (hERG) potassium channel (human); test: primary screen, population patch clamp on CHO cells stably expressing hERG; higher = less effect of the substance;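 further: peak tail current of the secondary pulse compared with the same well before compound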
Out of some 310,000 compounds screened, about 14,000 (4.5%) showed an effect of 50% or more. The effect is printed as a negative number. The full list was thinned out, with strong results kept by preference.

For human ether-à-go-go-related gene (hERG) potassium channel (human), provide hERG current change (%, negative = inhibition) at 10uM of CCOC(=O)c1sc2ncnc(N3CCN(C)CC3)c2c1C please.
-24.3%

For human ether-à-go-go-related gene (hERG) potassium channel (human), provide hERG current change (%, negative = inhibition) at 10uM of CCCCNC(=O)c1sc2ncnc(N3CCc4ccccc4C3)c2c1C please.
-50.5%

For human ether-à-go-go-related gene (hERG) potassium channel (human), provide hERG current change (%, negative = inhibition) at 10uM of COc1ccc(S(=O)(=O)N2CCC(NC(=O)c3cccnc3)CC2)cc1 please.
-64.7%

For human ether-à-go-go-related gene (hERG) potassium channel (human), provide hERG current change (%, negative = inhibition) at 10uM of Cc1cccc(C(=O)NC2CCN(S(=O)(=O)c3ccccc3)CC2)c1 please.
3.41%

For human ether-à-go-go-related gene (hERG) potassium channel (human), provide hERG current change (%, negative = inhibition) at 10uM of COCCCNC(=O)c1sc2ncnc(N3CCc4ccccc4C3)c2c1C please.
-23.9%

For human ether-à-go-go-related gene (hERG) potassium channel (human), provide hERG current change (%, negative = inhibition) at 10uM of CCN1CCN(c2ncnc3sc(C(=O)Nc4ccccc4F)c(C)c23)CC1 please.
-67%

For human ether-à-go-go-related gene (hERG) potassium channel (human), provide hERG current change (%, negative = inhibition) at 10uM of CCOC(=O)c1sc2ncnc(N3CCN(CC)CC3)c2c1C please.
-63.9%

For human ether-à-go-go-related gene (hERG) potassium channel (human), provide hERG current change (%, negative = inhibition) at 10uM of CCOC(=O)CNC(=O)c1sc2ncnc(N3CCc4ccccc4C3)c2c1C please.
-36.6%

For human ether-à-go-go-related gene (hERG) potassium channel (human), provide hERG current change (%, negative = inhibition) at 10uM of COc1ccc(S(=O)(=O)N2CCC(NC(=O)c3ccccc3)CC2)cc1 please.
17.8%

For human ether-à-go-go-related gene (hERG) potassium channel (human), provide hERG current change (%, negative = inhibition) at 10uM of CCOc1ccccc1OCCCC(=O)N(CC)CC(=O)Nc1c(F)cccc1F please.
-1.78%
